system: human umbilical vein endothelial cells (HUVEC); test: HUVEC + VEGF proliferation assay; assay type: cell-based; conditions: VEGF-stimulated proliferation, final VEGF 6 ng/mL, 72 hours, MTT
In this section we review reported IC50 values for a set of molecules.

Prompt: Supply IC50 value. Item: O=C(Cc1ccc(Oc2ccnc3cc(C(=O)N4CCC4)sc23)cc1Cl)Nc1ccccn1
Completion: > 10 nM

Prompt: Name the recorded IC50 of the item Cc1cc(C)nc(NC(=O)Cc2ccc(Oc3ccnc4cc(C(=O)N5CC[C@@H](O)C5)sc34)cc2)c1 in your answer.
Completion: 1 to 10 nM

Prompt: Consider the molecule Cc1ccc(NC(=O)Cc2ccc(Oc3ccnc4cc(C(=O)N5CCC5)sc34)cc2)nc1 . State its measured IC50.
Completion: 1 to 10 nM

Would you kindly look at the next entry?
Prompt: Answer with reported IC50 of O=C(Cc1ccc(Oc2ccnc3cc(C(=O)N4CCC4)sc23)cc1)Nc1ccc(Cl)cn1
Completion: < 1 nM
